I'd appreciate it if you could supply pIC50 values for the items below.
Test system: MCF-7 breast cancer cell
Experiment: MTT anti-proliferative assay, MCF-7
Assay type: cell-based, human
Settings: MTT, 48 h
pIC50: −log10 of the molar value.

molecule | observed-value
N#C/C(=C\c1cccs1)c1ccc(C(F)(F)F)cc1 [Compound 1f3b] | < 4.00

Hi, could you look up pIC50 for each item in my list?
1. N#C/C(=C\c1ccc(Cl)cc1)c1ccc(OC(F)(F)F)cc1 [Compound 1a2c]
2. N#C/C(=C\c1ccccc1C(F)(F)F)c1ccc(C(F)(F)F)cc1 [Compound 1f2m]
3. CCN(CC)c1ccc(/C=C(\C#N)c2ccc(OC)cc2)cc1 [Compound 1e2c]

1. 4.26
2. < 4.00
3. < 4.00

Batch lookup, pIC50 per entry.
1. COc1ccc(/C(C#N)=C/c2cc(OC)c(OC)c(OC)c2)cc1 [Compound 1e2a]
2. CCCCCCOc1ccc(/C=C(\C#N)c2ccc(OC(F)(F)F)cc2)cc1 [Compound 1a2p]
3. N#C/C(=C\c1ccccc1F)c1ccc(C(F)(F)F)cc1 [Compound 1f2g]
4. COc1ccc(/C=C(\C#N)c2ccc(C(F)(F)F)cc2)cc1 [Compound 1f2s]
5. N#C/C(=C\c1ccco1)c1ccc(OC(F)(F)F)cc1 [Compound 1a3a]

1. 4.43
2. < 4.00
3. < 4.00
4. < 4.00
5. < 4.00
